Test system: OVCAR-5 ovarian
Assay Procedure: NCI-60 one-dose screen, 48 h (100 = growth as untreated, 0 = no growth, -100 = all killed)
Applied Conditions: 10 µM unless noted
The panel holds about 83,000 compounds, 20% with a hit somewhere; the sample as a whole holds those more often. The source made the active and inactive calls. How the source made its calls: active means growth percent below 10; inactive means the rest.
Observation Type: growth

Compound: CC(=O)CC(=O)OC/C=C(/C)CCC=C(C)C
Result Value: 100% (inactive)

Compound: C[C@H]1C[C@@H](n2cnc3c(N)nccc32)[C@H](O)[C@@H]1O
Result Value: 103% (inactive)

Compound: [N-]=[N+]=Nc1ncc(-c2ccc(C(F)(F)F)cc2)c(NC2CCCCCC2)n1
Result Value: 65% [100 µM] (inactive)

Compound: CC1(C)C(O)NC(Cl)=C(C#N)C1(C#N)C#N (stereo not given)
Result Value: 83% (inactive)

Compound: Nc1nc2c(c3cnccc13)C(c1cccc(Cl)c1)Cc1cnccc1-2 (stereo not given)
Result Value: 40.4% (inactive)
